The reported numbers originate from patent US20240343815A1.

- systemUnderTest: T1, recombinant human IL4Rα-his protein (human, UniProt P24394 26-232, biotinylated in the capture ELISA and the benchmark blocking ELISA)
- T1 construct: also called biotinylated human IL4Rα-his protein
- experimentDescription: SPR Biacore, mAb captured, IL4Rα-his analyte
- Protocol: Briefly, a goat anti-human IgG (GE Healthcare, Cat. No. BR100839, Human Antibody Capture Kit) was covalently attached to a CMS chip (carboxymethylated dextran-coated chip) via the primary amine group using a standard amine coupling kit supplied by Biacore (GE Healthcare, Pittsburgh, PA, USA). […] The association and dissociation curves were fitted according to a 1:1 Langmuir binding model using BIA evaluation software, and the KD, Kₐ, and Kd values were determined. […]

binder	Dissociation (%)
huC2C1A1A1-V9 (antibody, human IgG4 S228P, kappa, V domains shown, Humanized IgG4/kappa) VH: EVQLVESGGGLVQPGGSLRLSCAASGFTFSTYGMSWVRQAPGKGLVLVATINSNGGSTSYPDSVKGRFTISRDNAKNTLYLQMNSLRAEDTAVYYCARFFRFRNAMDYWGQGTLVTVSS VL: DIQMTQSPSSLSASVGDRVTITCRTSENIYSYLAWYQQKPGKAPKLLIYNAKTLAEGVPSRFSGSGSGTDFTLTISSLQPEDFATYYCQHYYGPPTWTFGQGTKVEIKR	-0.24
huC2C1A1A1-V1 (antibody, human IgG4 S228P, kappa, V domains shown, Humanized IgG4/kappa) VH: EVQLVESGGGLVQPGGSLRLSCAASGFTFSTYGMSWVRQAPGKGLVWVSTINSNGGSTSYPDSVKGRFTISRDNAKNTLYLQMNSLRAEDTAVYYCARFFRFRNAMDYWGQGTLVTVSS VL: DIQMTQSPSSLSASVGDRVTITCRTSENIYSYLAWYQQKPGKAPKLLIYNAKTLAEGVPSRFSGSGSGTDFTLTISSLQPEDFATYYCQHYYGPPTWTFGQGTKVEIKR	0.23
huC2C1A1A1-V5 (antibody, human IgG4 S228P, kappa, V domains shown, Humanized IgG4/kappa) VH: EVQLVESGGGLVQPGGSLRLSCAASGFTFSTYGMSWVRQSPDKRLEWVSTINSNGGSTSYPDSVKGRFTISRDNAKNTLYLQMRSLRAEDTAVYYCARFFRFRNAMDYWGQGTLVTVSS VL: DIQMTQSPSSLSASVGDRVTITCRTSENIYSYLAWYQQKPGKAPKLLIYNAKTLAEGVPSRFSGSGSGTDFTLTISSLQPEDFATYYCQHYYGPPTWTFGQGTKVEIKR	-2.28
Chimeric C2C1A1A1 (antibody, human IgG4 S228P, kappa, V domains shown, Mouse variable regions on human IgG4 / kappa constant regions; also called chimeric antibody; Supernatant containing chimeric C2C1A1A1) VH: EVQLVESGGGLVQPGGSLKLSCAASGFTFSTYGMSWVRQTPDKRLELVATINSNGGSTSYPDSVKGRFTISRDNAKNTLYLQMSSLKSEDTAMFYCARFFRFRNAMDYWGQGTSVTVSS VL: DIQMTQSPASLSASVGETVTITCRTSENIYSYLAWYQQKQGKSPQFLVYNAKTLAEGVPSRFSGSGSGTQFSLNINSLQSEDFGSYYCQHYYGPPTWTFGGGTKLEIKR	-1.94
huC2C1A1A1-V8 (antibody, human IgG4 S228P, kappa, V domains shown, Humanized IgG4/kappa) VH: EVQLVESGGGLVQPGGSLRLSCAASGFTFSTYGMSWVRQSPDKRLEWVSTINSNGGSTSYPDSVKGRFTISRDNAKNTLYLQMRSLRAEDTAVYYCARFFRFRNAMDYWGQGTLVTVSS VL: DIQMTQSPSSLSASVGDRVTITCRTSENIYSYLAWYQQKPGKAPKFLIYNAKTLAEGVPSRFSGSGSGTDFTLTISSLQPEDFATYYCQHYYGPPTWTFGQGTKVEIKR	-1.23
